# study target: P300 (Homo sapiens)
# Construct: endogenous in cells; host or cells: 22Rv1 (ATCC CRL-2505) human prostate cancer cells
# Sequence (Q09472 whole entry): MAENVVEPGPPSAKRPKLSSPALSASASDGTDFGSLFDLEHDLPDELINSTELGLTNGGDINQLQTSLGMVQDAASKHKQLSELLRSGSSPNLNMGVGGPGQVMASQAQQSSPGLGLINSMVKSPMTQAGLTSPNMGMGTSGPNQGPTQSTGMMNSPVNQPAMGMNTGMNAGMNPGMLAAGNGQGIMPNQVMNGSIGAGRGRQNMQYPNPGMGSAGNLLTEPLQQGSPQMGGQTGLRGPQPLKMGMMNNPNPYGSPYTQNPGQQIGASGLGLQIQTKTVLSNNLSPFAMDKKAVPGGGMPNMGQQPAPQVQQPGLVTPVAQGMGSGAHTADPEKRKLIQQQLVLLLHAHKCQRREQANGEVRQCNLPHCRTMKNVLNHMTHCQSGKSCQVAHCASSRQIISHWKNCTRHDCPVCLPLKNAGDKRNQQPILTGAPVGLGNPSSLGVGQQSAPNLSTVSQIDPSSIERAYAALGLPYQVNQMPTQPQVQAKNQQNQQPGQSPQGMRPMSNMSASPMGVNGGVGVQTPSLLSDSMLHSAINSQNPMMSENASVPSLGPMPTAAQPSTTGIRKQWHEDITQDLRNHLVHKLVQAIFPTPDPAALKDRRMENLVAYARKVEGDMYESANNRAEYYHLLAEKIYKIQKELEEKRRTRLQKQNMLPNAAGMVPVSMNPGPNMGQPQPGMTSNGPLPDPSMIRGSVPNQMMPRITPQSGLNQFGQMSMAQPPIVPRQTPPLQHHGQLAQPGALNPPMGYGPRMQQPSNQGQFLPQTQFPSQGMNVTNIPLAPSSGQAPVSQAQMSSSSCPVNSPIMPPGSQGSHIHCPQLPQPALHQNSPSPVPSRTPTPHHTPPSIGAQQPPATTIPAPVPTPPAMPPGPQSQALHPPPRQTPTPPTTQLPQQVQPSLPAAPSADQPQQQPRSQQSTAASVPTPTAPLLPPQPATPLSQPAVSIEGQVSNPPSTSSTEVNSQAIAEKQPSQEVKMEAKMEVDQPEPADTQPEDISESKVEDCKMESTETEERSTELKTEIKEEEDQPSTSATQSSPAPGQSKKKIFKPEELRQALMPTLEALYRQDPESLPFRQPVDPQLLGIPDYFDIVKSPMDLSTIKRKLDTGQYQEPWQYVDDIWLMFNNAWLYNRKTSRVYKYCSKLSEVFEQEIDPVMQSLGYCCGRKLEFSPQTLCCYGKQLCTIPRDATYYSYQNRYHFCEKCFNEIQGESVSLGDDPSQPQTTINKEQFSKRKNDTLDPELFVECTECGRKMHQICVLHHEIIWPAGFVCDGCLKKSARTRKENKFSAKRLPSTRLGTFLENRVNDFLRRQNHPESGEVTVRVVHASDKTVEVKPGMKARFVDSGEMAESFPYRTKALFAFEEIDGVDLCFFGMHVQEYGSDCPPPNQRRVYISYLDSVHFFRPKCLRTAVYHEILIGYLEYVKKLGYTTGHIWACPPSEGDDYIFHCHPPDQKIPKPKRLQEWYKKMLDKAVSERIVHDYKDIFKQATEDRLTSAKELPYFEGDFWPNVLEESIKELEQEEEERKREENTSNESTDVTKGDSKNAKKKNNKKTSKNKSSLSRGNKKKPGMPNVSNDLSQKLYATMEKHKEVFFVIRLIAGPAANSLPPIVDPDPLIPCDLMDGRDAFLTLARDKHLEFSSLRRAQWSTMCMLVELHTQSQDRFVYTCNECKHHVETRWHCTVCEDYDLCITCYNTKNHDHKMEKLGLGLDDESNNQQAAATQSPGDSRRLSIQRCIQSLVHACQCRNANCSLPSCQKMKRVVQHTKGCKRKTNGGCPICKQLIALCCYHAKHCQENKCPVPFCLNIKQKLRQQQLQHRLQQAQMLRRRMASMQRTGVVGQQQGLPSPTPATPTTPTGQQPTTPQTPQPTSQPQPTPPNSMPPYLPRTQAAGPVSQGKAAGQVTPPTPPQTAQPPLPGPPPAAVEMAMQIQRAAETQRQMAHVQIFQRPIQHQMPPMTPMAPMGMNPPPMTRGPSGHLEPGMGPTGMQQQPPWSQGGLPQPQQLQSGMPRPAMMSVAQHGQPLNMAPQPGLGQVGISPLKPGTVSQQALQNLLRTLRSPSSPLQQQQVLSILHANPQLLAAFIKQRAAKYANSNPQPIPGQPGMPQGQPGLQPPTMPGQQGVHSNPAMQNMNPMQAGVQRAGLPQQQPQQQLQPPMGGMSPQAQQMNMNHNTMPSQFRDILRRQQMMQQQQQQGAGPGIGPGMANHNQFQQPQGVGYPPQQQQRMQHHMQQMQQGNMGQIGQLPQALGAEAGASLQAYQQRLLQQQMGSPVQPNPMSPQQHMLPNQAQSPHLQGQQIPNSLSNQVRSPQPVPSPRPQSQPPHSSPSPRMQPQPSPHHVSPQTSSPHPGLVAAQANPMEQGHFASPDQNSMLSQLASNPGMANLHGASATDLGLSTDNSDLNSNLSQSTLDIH
# protocol text: P300 degradation in 22Rv1 cells (5 h)
# Format: cell-based
# condition description: 22Rv1 cells, 5 h; read-out: P300 Degradation (22Rv1, 5 h) DCmax
The following compounds are shown together with reported Dmax values.

These recorded examples may help you get a feel for the data.
INSERT INTO measurements (compound, recorded_endpoint, assay_result) VALUES
  ('CC(=O)N1CCc2c(c(-c3cccc4ccncc34)nn2C2CCN(C(=O)CN3Cc4cc5c(cc4C3)C(=O)N(C3CCC(=O)NC3=O)C5=O)CC2)C1 (centres unmarked)', 'Dmax', '< 50%'),
  ('CC(=O)N1CCc2c(c(N3CCCc4cc(-c5cnn(C)c5)c(C(F)F)cc43)nn2[C@H]2CC[C@H](CN3Cc4cc5c(cc4C3)C(=O)N(C3CCC(=O)NC3=O)C5)CC2)C1 (some centres unmarked)', 'Dmax', '> 90%'),
  ('CC(=O)c1cc2c(cc1C(F)F)N(c1nn(C3CCN(C(=O)CN4CCc5cc6c(cc5C4)C(=O)N(C4CCC(=O)NC4=O)C6=O)CC3)c3c1CN(C(C)=O)CC3)CCC2 (centres unmarked)', 'Dmax', '< 50%'),
  ('CC(=O)N1CCc2c(c(N3CCCc4cc(Br)c(C(F)F)cc43)nn2C2CCN(C(=O)CN3Cc4cc5c(cc4C3)C(=O)N(C3CCC(=O)NC3=O)C5=O)CC2)C1 (centres unmarked)', 'Dmax', '< 50%');

Continue with the compound presented below.
Q) Please indicate Dmax recorded for CC(=O)N1CCc2c(c(N3CCCc4cc(C(C)C)c(C(F)F)cc43)nn2C2CCN(C(=O)CN3Cc4cc5c(cc4C3)C(=O)N(C3CCC(=O)NC3=O)C5=O)CC2)C1 (centres unmarked)
A) > 70%

---

# study target: CBP (Homo sapiens, UniProt Q92793)
# Construct: endogenous in cells; host or cells: 22Rv1 (ATCC CRL-2505) human prostate cancer cells
# Sequence (Q92793 whole entry): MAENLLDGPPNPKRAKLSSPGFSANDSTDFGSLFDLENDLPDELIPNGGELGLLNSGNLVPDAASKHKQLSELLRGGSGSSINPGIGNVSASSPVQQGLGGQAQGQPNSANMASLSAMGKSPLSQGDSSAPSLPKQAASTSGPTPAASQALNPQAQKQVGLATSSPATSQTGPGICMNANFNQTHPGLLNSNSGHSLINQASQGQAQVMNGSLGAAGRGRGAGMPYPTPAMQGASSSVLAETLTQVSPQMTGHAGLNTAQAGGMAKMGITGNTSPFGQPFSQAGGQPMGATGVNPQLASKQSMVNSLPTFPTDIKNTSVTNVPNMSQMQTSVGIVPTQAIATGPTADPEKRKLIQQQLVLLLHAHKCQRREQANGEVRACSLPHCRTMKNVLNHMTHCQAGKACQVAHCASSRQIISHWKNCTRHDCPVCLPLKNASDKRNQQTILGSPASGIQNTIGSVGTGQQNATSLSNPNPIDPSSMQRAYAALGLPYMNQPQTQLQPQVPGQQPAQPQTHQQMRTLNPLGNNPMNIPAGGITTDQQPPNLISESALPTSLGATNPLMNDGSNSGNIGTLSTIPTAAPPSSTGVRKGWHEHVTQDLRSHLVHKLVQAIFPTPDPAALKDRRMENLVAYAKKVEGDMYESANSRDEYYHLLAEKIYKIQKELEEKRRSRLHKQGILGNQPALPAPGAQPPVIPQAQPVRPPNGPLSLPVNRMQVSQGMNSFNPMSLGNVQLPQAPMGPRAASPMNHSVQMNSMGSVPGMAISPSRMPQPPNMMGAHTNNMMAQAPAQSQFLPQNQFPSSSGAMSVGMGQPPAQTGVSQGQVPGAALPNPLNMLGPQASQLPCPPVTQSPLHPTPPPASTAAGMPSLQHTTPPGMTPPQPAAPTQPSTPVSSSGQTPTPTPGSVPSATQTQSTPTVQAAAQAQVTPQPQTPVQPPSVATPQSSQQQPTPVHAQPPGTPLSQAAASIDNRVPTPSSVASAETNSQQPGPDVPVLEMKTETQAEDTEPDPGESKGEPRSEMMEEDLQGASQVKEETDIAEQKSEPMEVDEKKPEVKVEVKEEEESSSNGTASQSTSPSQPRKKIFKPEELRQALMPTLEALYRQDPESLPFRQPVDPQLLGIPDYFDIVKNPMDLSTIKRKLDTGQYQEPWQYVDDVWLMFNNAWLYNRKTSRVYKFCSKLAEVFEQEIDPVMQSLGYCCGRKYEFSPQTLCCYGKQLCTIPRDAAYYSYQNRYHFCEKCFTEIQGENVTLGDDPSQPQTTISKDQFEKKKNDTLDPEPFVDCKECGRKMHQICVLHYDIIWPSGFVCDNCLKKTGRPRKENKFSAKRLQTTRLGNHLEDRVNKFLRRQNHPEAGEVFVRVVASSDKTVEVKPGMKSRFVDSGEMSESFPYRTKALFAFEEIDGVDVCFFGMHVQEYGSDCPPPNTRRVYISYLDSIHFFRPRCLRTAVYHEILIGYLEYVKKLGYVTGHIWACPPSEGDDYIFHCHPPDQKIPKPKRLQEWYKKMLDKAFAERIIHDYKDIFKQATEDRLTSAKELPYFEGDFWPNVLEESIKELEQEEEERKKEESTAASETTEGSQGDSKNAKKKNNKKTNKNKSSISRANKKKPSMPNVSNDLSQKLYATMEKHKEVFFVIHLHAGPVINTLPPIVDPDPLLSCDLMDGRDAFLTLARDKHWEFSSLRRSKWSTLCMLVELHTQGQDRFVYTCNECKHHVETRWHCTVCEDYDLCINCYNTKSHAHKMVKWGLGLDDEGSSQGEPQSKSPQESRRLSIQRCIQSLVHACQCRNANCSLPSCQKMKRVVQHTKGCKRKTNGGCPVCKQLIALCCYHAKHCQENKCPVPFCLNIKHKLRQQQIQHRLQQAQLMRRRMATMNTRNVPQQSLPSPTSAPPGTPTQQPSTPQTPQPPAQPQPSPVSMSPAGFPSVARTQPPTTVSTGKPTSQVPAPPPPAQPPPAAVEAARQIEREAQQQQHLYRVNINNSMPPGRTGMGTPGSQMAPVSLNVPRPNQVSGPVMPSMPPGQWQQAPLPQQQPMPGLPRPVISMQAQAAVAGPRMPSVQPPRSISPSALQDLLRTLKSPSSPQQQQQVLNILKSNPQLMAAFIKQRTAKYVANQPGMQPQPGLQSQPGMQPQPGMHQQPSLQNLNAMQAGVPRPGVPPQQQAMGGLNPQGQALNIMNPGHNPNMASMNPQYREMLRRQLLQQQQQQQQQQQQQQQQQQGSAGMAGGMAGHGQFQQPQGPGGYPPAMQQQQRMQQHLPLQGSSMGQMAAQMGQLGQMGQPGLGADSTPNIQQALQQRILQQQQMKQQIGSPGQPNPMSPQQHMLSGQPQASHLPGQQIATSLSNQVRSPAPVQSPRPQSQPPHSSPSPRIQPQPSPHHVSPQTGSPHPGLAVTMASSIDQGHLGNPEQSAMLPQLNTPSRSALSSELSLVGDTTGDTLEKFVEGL
# protocol text: CBP degradation in 22Rv1 cells (5 h)
# Assay type: cell-based
# condition description: 22Rv1 cells, 5 h
recorded endpoint: DC50

Below, each entry is followed by its recorded DC50 result.
INSERT INTO assay_data (compound, study_target, assay_result) VALUES
  ('Cc1noc(C)c1-c1ccc2c(c1)nc([C@@H]1CCCC(=O)N1c1ccc(F)c(F)c1)n2C1CCN(C(=O)CCCN2Cc3cc4c(cc3C2)C(=O)N(C2CCC(=O)NC2=O)C4=O)CC1 (stereo partly shown)', 'CBP (Homo sapiens, UniProt Q92793)', '> 1000 nM'),
  ('CC(=O)N1CCc2c(c(N3CCCc4cc(Cl)c(C(F)F)cc43)nn2C2CCN(C(=O)CN3Cc4cc5c(cc4C3)C(=O)N(C3CCC(=O)NC3=O)C5=O)CC2)C1 (stereo not shown)', 'CBP (Homo sapiens, UniProt Q92793)', '> 1000 nM'),
  ('CC(=O)N1CCc2c(c(N3CCCc4cc(-c5cnn(C)c5)c(C(F)F)cc43)nn2[C@H]2CC[C@H](CN3CC4(Cc5cc6c(cc5C4)C(=O)N(C4CCC(=O)NC4=O)C6=O)C3)CC2)C1 (stereo partly shown)', 'CBP (Homo sapiens, UniProt Q92793)', '< 10 nM'),
  ('CC(=O)N1CCc2c(c(N3CCCc4cc(-c5cnn(C)c5)c(C(F)F)cc43)nn2C[C@H]2CC[C@@H](C(=O)N3CCc4cc5c(cc4C3)C(=O)N(C3CCC(=O)NC3=O)C5=O)CC2)C1 (stereo partly shown)', 'CBP (Homo sapiens, UniProt Q92793)', '< 100 nM'),
  ('CC(=O)N1CCc2c(c(N3CCCc4cc(-c5cnn(CCCN6Cc7cc8c(cc7C6)C(=O)N(C6CCC(=O)NC6=O)C8=O)c5)c(C(F)F)cc43)nn2C2CCOCC2)C1 (stereo not shown)', 'CBP (Homo sapiens, UniProt Q92793)', '< 10 nM'),
  ('CC(=O)N1CCc2c(c(N3CCCc4cc(-c5cnn(C)c5)c(C(F)F)cc43)nn2C[C@H]2CC[C@@H](N3CCc4cc5c(cc4C3)C(=O)N(C3CCC(=O)NC3=O)C5=O)CC2)C1 (relative stereo)', 'CBP (Homo sapiens, UniProt Q92793)', '< 10 nM');

Q) Hello, please tell me recorded DC50 for this one: CC(=O)N1CCc2c(c(N3CCCc4cc(-c5cnn(C)c5)c(C(F)F)cc43)nn2C2CCN(CC3Cc4cc5c(cc4C3)C(=O)N(C3CCC(=O)NC3=O)C5=O)CC2)C1 (stereo not shown)
A) < 10 nM

Q) State its DC50 for this compound: CC(=O)N1CCc2c(c(N3CCCc4cc(-c5cnn(C)c5)c(C(F)F)cc43)nn2C[C@H]2CC[C@H](N3CCc4cc5c(cc4C3)C(=O)N(C3CCC(=O)NC3=O)C5=O)CC2)C1 (stereo partly shown)
A) < 10 nM

Q) Let me know recorded DC50 for CC(=O)N1CCc2c(c(N3CCCc4cc(-c5cnn(C6CCN(C(=O)CN7Cc8cc9c(cc8C7)C(=O)N(C7CCC(=O)NC7=O)C9=O)CC6)c5)c(C(F)F)cc43)nn2C2CCOCC2)C1 (stereo not shown) , thanks.
A) < 10 nM

Q) Tell me measured DC50 for CC(=O)N1CCc2c(c(N3CCCc4ccc(C(F)F)cc43)nn2C2CCN(C(=O)CN3Cc4cc5c(cc4C3)C(=O)N(C3CCC(=O)NC3=O)C5=O)CC2)C1 (stereo not shown) please.
A) < 100 nM

---

# study target: CBP (Homo sapiens)
# Construct: endogenous in cells; host or cells: 22Rv1 (ATCC CRL-2505) human prostate cancer cells
# protocol text: CBP degradation in 22Rv1 cells (5 h)
# Format: cell-based
# condition description: 22Rv1 cells, 5 h
recorded endpoint: DC50

Check out these entries, answers already filled in.
INSERT INTO results (compound, recorded_endpoint, assay_result) VALUES
  ('CC(=O)N1CCc2c(c(N3CCCc4cc(-c5cnn(C)c5)c(C(F)F)cc43)nn2C2CCN(C(=O)CCCN3CCc4cc5c(cc4C3)C(=O)N(C3CCC(=O)NC3=O)C5=O)CC2)C1 (centres unmarked) [CP-004]', 'DC50', '< 10 nM'),
  ('CCC(=O)N1CCc2c(c(N3CCCc4cc(-c5cnn(C)c5)c(C(F)F)cc43)nn2C2CCN(C(=O)CN3Cc4cc5c(cc4C3)C(=O)N(C3CCC(=O)NC3=O)C5=O)CC2)C1 (centres unmarked) [CP-055]', 'DC50', '< 10 nM'),
  ('CC(=O)N1CCc2c(c(N3CCCc4cc(-c5cnn(C6CCN(C(=O)CN7CCc8cc9c(cc8C7)C(=O)N(C7CCC(=O)NC7=O)C9=O)CC6)c5)c(C(F)F)cc43)nn2C2CCOCC2)C1 (centres unmarked) [CP-071]', 'DC50', '< 10 nM'),
  ('CC(=O)N1CCc2c(c(N3CCCc4cc(-c5cnn(C)c5)c(C(F)F)cc43)nn2C2CCC(N3CCc4ccc5c(c4C3)C(=O)N(C3CCC(=O)NC3=O)C5=O)CC2)C1 (centres unmarked) [CP-087]', 'DC50', '> 1000 nM'),
  ('CC(=O)N1CCc2cc3c(cc2C1)CCCN3c1nn(C2CCN(C(=O)CN3Cc4cc5c(cc4C3)C(=O)N(C3CCC(=O)NC3=O)C5=O)CC2)c2c1CN(C(C)=O)CC2 (centres unmarked) [CP-080]', 'DC50', '< 10 nM'),
  ('CC(=O)N1CCc2c(c(N3CCCc4cc(-c5cnn(C)c5)c(C(F)F)cc43)nn2C[C@H]2CC[C@@H](C(=O)N3Cc4cc5c(cc4C3)C(=O)N(C3CCC(=O)NC3=O)C5=O)CC2)C1 (some centres unmarked) [CP-031]', 'DC50', '< 100 nM');

Proceed to the following item.
Q) Input CC(=O)N1CCc2c(c(N3CCCc4cc(-c5cnn(CCCCN6Cc7cc8c(cc7C6)C(=O)N(C6CCC(=O)NC6=O)C8=O)c5)c(C(F)F)cc43)nn2C2CCOCC2)C1 (centres unmarked) [CP-068] , output reported DC50.
A) < 10 nM

---

# study target: CBP (Homo sapiens, UniProt Q92793)
# Construct: endogenous in cells; host or cells: 22Rv1 (ATCC CRL-2505) human prostate cancer cells
# protocol text: CBP degradation in 22Rv1 cells (5 h)
# Format: cell-based
# condition description: 22Rv1, 5 h, 22Rv1 cells, 5 h; read-out: CBP Degradation (22Rv1, 5 h) DCmax
recorded endpoint: Dmax

# example entries with known answers
INSERT INTO measurements (molecule, assay_result) VALUES
  ('CC(=O)N1CCc2c(c(N3CCCc4cc(C5CCCCC5)c(C(F)F)cc43)nn2C2CCN(C(=O)CN3Cc4cc5c(cc4C3)C(=O)N(C3CCC(=O)NC3=O)C5=O)CC2)C1 (centres unmarked) [CP-021]', '> 90%'),
  ('CC(=O)N1CCc2c(c(N3CCCc4cc(-c5cnn(C)c5)c(C(F)F)cc43)nn2C2CCN(CC(=O)N3Cc4cc5c(cc4C3)C(=O)N(C3CCC(=O)NC3=O)C5=O)CC2)C1 (centres unmarked) [CP-006]', '> 70%');

Q) Give the reported Dmax for this molecule. CC(=O)N1CCc2c(c(N3CCCc4cc(C5CC5)c(C(F)F)cc43)nn2C2CCN(C(=O)CN3Cc4cc5c(cc4C3)C(=O)N(C3CCC(=O)NC3=O)C5=O)CC2)C1 (centres unmarked) [CP-013]
A) > 90%

Q) Answer with the recorded Dmax of CC(=O)N1CCc2c(c(-c3cccc4ccccc34)nn2C2CCN(C(=O)CN3Cc4cc5c(cc4C3)C(=O)N(C3CCC(=O)NC3=O)C5=O)CC2)C1 (centres unmarked) [CP-075] only.
A) > 90%

Q) Please give the documented Dmax of CC(=O)N1CCc2c(c(N3CCCc4cc(-c5cnn(C)c5)c(C(F)F)cc43)nn2C[C@H]2CC[C@H](N3CCc4cc5c(cc4C3)C(=O)N(C3CCC(=O)NC3=O)C5=O)CC2)C1 (some centres unmarked) [CP-041]
A) > 90%

Q) Give recorded Dmax. Cn1cc(-c2cc3c(cc2C(F)F)N(c2nn(C4CCN(C(=O)CN5Cc6cc7c(cc6C5)C(=O)N(C5CCC(=O)NC5=O)C7=O)CC4)c4c2CN(CC(C)(F)F)CC4)CCC3)cn1 (centres unmarked) [CP-059]
A) < 50%

Q) Identify the reported Dmax for the following entry. Cc1noc(C)c1-c1ccc2c(c1)nc([C@@H]1CCCC(=O)N1c1ccc(F)c(F)c1)n2C1CCN(C(=O)CN2Cc3cc4c(cc3C2)C(=O)N(C2CCC(=O)NC2=O)C4=O)CC1 (some centres unmarked) [CP-061]
A) > 50%

Q) Quickly give me recorded Dmax for CC(=O)N1Cc2c(N3CCCc4cc(-c5ccnn5C)c(C(F)F)cc43)nn(C3CCN(C(=O)CN4Cc5cc6c(cc5C4)C(=O)N(C4CCC(=O)NC4=O)C6=O)CC3)c2C(C)(C)C1 (centres unmarked) [CP-085]
A) > 70%

Q) Answer with the recorded Dmax of CC(=O)N1CCc2c(c(N3CCCc4cc5c(cc43)C(C)(C)CCC5)nn2C2CCN(C(=O)CN3Cc4cc5c(cc4C3)C(=O)N(C3CCC(=O)NC3=O)C5=O)CC2)C1 (centres unmarked) [CP-083] only.
A) < 50%

Q) Could you please provide reported Dmax for CC(=O)N1CCc2c(c(N3CCCc4ccc(C(F)F)cc43)nn2C2CCN(C(=O)CN3CCc4cc5c(cc4C3)C(=O)N(C3CCC(=O)NC3=O)C5=O)CC2)C1 (centres unmarked) [CP-009] ? Thanks!
A) > 90%

Q) # return recorded Dmax for input CCC(=O)N1CCc2c(c(N3CCCc4cc(-c5cnn(C)c5)c(C(F)F)cc43)nn2C2CCN(C(=O)CN3Cc4cc5c(cc4C3)C(=O)N(C3CCC(=O)NC3=O)C5=O)CC2)C1 (centres unmarked) [CP-055]
A) > 70%

Data credit: patent US20240150360A1
